B1: 26S proteasome non-ATPase regulatory subunit 4 homolog (Arabidopsis thaliana (Mouse-ear cress)), P55034 (parent)
chain: MVLEATMICIDNSEWMRNGDYSPSRLQAQTEAVNLLCGAKTQSNPENTVGILTMAGKGVRVLTTPTSDLGKILACMHGLDVGGEINLTAAIQIAQLALKHRQNKNQRQRIIVFAGSPIKYEKKALEIVGKRLKKNSVSLDIVNFGEDDDEEKPQKLEALLTAVNNNDGSHIVHVPSGANALSDVLLSTPVFTGDEGASGYVSAAAAAAAAGGDFDFGVDPNIDPELALALRVSMEEERARQEAAAKKAADEAGQKDKDGDTASASQETVARTTDKNAEPMDEDSALLDQAIAMSVGDVNMSEAADEDQDLALALQMSMSGEESSEATGAGNNLLGNQAFISSVLSSLPGVDPNDPAVKELLASLPDESKRTEEEESSSKKGEDEKK

Variants of: B1
Run parameters: with rd23b_human RAD23B
Measure name: effect of a mutation on the interaction

| Mutation id | Measure name | Observed result |
| --- | --- | --- |
| L226D;A227D;L228D;A229D;L230D | effect of a mutation on the interaction | with no effect |
| L286N;L287N;Q289N;A290D | effect of a mutation on the interaction | with no effect |
